Examples of compounds with documented MIC Streptococcus agalactiae (GC 4564) follow.
Tested on: Streptococcus sp.
Assay: in vitro antibacterial evaluation, MIC by broth dilution
Type: cell-based
Settings: broth dilution, 18 hours at 35° C.; strain GC 4564
Source text: Methods for in vitro Antibacterial Evaluation (Table 1) […]
Enter your answer as a number in µg/mL; do not include the unit.

>>> observed_value("CN=C1N(C)CC(C(O)C2NC(=O)C(Cc3ccc(OC4OC(CO)C(OC5OC(CO)C(O)C(O)C5O)C(O)C4O)cc3)NC(=O)C(C(C)c3ccccc3)NC(=O)CNC(=O)C(CO)NC(=O)C(C(O)C3CN(C)C(=NC)N3C3OC(CO)C(O)C(O)C3O)NC2=O)N1C (stereo not shown) [Example 64]")
128

Entry CC(c1ccccc1)C1NC(=O)CNC(=O)C(CO)NC(=O)C(C(O)C2CN(Cc3ccccc3)C(=NCc3ccccc3)N2C2OC(CO)C(O)C(O)C2O)NC(=O)C(C(O)C2CN(Cc3ccccc3)C(=NCc3ccccc3)N2Cc2ccccc2)NC(=O)C(Cc2ccc(OC3OC(CO)C(OC4OC5COC6(OC5C(O)C4O)C4CC5CC(C4)CC6C5)C(O)C3O)cc2)NC1=O (stereo not shown) [Example 79] under Streptococcus sp. had MIC Streptococcus agalactiae (GC 4564) of 4

---

System: Enterococcus sp.
Assay: in vitro antibacterial evaluation, MIC by broth dilution
Type: cell-based
Conditions: broth dilution, 18 hours at 35° C.; strain GC 2691
Text: Methods for in vitro Antibacterial Evaluation (Table 1) […]
Numbered stars: 1 amine (or outer) side, 2 acyl side, 3 side chain; on linkers, the order of the positions; unused ones are H or OH. Square brackets hold non-standard residues; d marks the D form. Peptide text beside a SMILES is read from it. * marks the point of attachment. ξ: configuration not given here. X6 = N=C1NCC(CC(N[*:1])C(=O)[*:2])N1C1OC(CO)C(O)C(O)C1O; ξEnduracididine(βξ-OH,4'ξ) = N=C1NCC(C(O)C(N)C(=O)O)N1; X2 = OCC1OC(OC2C(CO)OC(*)C(O)C2O)C(O)C(O)C1O; X5 = N=C1NCC(C(O)[C@@H](N[*:1])C(=O)[*:2])N1; X4 = N=C1NCC(C(O)[C@H](N[*:1])C(=O)[*:2])N1; ξPhe(βξ-Me) = CC(c1ccccc1)C(N)C(=O)O; Cha = N[C@@H](CC1CCCCC1)C(=O)O; dCha = N[C@H](CC1CCCCC1)C(=O)O
Binary call on MIC Enterococcus faecalis (GC 2691) with cut-off 8 µg/mL: strictly below means yes, and equality or higher means no.

Worked set:
>>> class("Cc1ccc(CC2OCC3OC(OC4C(CO)OC(Oc5ccc(CC6NC(=O)C(C(C)c7ccccc7)NC(=O)CNC(=O)C(CO)NC(=O)C(C(O)C7CNC(=N)N7C7OC(CO)C(O)C(O)C7O)NC(=O)C(C(O)C7CNC(=N)N7)NC6=O)cc5)C(O)C4O)C(O)C(O)C3O2)cc1 (centres unmarked) [Example 119]")
"yes"
>>> class("CC(c1ccccc1)C1NC(=O)CNC(=O)C(CO)NC(=O)C(CC2CNC(=N)N2C2OC(CO)C(O)C(O)C2O)NC(=O)C(C(O)C2CNC(=N)N2)NC(=O)C(Cc2ccc(OC3OC(CO)C(OC4OC(CO)C(O)C(O)C4O)C(O)C3O)cc2)NC1=O (stereo not drawn) [Example 284b] (cyclo(G[ξPhe(βξ-Me)]Y(X2)[ξEnduracididine(βξ-OH,4'ξ)][X6]S); configuration not given here)")
"no"
>>> class("CC(c1ccccc1)C1NC(=O)CNC(=O)C(CO)NC(=O)C(C(O)C2CN(Cc3ccc(C(=O)O)cc3)C(=N)N2C2OC(CO)C(O)C(O)C2O)NC(=O)C(C(O)C2CNC(=N)N2)NC(=O)C(Cc2ccc(OC3OC(CO)C(OC4OC(CO)C(O)C(O)C4O)C(O)C3O)cc2)NC1=O (centres unmarked) [Example 69]")
"no"
>>> class("Cc1cccc(Oc2ccc(-c3nc4cc(C[C@@H]5NC(=O)[C@H](C(C)c6ccccc6)NC(=O)CNC(=O)[C@H](CO)NC(=O)[C@H](C(O)C6CNC(=N)N6)NC(=O)[C@H](C(O)C6CNC(=N)N6)NC5=O)ccc4o3)cc2)c1 (some centres unmarked) [Example 41]")
"no"
>>> class("CC(c1ccccc1)C1NC(=O)CNC(=O)C(CO)NC(=O)C(CC2CNC(=N)N2C2OC(CO)C(O)C(O)C2O)NC(=O)C(CC2CNC(=N)N2)NC(=O)C(Cc2ccc(OC3OC(CO)C(OC4OC(CO)C(O)C(O)C4O)C(O)C3O)cc2)NC1=O (centres unmarked) [Example 277a]")
"no"

Does the reported MIC Enterococcus faecalis (GC 2691) of CC(c1ccccc1)C1NC(=O)CNC(=O)C(CO)NC(=O)C(C(O)C2CNC(=N)N2C2OC(CO)C(O)C(O)C2O)NC(=O)C(C(O)C2CNC(=N)N2)NC(=O)C(Cc2ccc(OC3OC(CO)C(OC4OC5COC(C67CC8CC(CC(C8)C6)C7)OC5C(O)C4O)C(O)C3O)cc2)NC1=O (centres unmarked) [Example 127] stay below 8 µg/mL? yes

Decide: MIC Enterococcus faecalis (GC 2691) of N=C1NCC(C(O)[C@@H]2NC(=O)[C@@H](CC3CCCCC3)NC(=O)[C@H](CC3CCCCC3)NC(=O)CNC(=O)[C@H](CO)NC(=O)[C@@H](C(O)C3CNC(=N)N3)NC2=O)N1 (some centres unmarked) [Example 58] (cyclo([Cha][dCha][X4][X5]SG)) strictly below 8 µg/mL? no

Criterion: MIC Enterococcus faecalis (GC 2691) strictly below 8 µg/mL. Is it met by CCCCCCCN1CC(C(O)C2NC(=O)C(C(O)C3CNC(=N)N3)NC(=O)C(Cc3ccc(OC4OC(CO)C(OC5OC6COC7(OC6C(O)C5O)C5CC6CC(C5)CC7C6)C(O)C4O)cc3)NC(=O)C(C(C)c3ccccc3)NC(=O)CNC(=O)C(CO)NC2=O)N(C2OC(CO)C(O)C(O)C2O)C1=N (centres unmarked) [Example 83] ? yes

Is MIC Enterococcus faecalis (GC 2691) strictly under 8 µg/mL for the entry CC(C1CCCCC1)C1NC(=O)CNC(=O)C(CO)NC(=O)C(C(O)C2CNC(=N)N2C2OC(CO)C(O)C(O)C2O)NC(=O)C(C(O)C2CNC(=N)N2)NC(=O)C(C[C@H]2CC[C@H](O)CC2)NC1=O (some centres unmarked) [Example 54a] ? no

Could you please tell me whether MIC Enterococcus faecalis (GC 2691) recorded for CC(c1ccccc1)C1NC(=O)CNC(=O)C(CO)NC(=O)C(CC2CNC(=N)N2C2OC(CO)C(O)C(O)C2O)NC(=O)C(CC2CNC(=N)N2)NC(=O)C(Cc2ccc(OC3OC(CO)C(OC4OC(CO)C(O)C(OCc5ccc(OCc6ccccc6)cc5)C4O)C(O)C3O)cc2)NC1=O (centres unmarked) [Example 246b] is less than 8 µg/mL? no

---

Tested on: Enterococcus sp.
Assay: in vitro antibacterial evaluation, MIC by broth dilution
Type: cell-based
Conditions: broth dilution, inoculum 5×10^5 CFU/mL, 18 hours at 35° C.; strain GC 2691
measured_metric: MIC Enterococcus faecalis (GC 2691) (µg/mL)
Numbers only; they are read as µg/mL.

Past entries and their recorded results:
>>> observed_value("CC(c1ccccc1)C1NC(=O)CNC(=O)C(CO)NC(=O)C(C(O)C2CNC(=N)N2C2OC(CO)C(O)C(O)C2O)NC(=O)C(C(O)C2CNC(=N)N2)NC(=O)C(Cc2ccc(OC3OC(CO)C(OC4OC(CO)C(OCc5ccc(OCc6ccccc6)cc5)C(O)C4O)C(O)C3O)cc2)NC1=O (stereo not shown) [Example 231a]")
2
>>> observed_value("CC(c1ccc(Cl)cc1)C1NC(=O)CNC(=O)C(CO)NC(=O)C(C(O)C2CNC(=N)N2C2OC(CO)C(O)C(O)C2O)NC(=O)C(C(O)C2CNC(=N)N2)NC(=O)C(Cc2ccc(OC3OC(CO)C(OC4OC5COC(C6CCCCC6)OC5C(O)C4O)C(O)C3O)cc2)NC1=O (stereo not shown)")
2

// below: MIC Enterococcus faecalis (GC 2691) requested for another molecule
Fill in: Enterococcus sp. MIC Enterococcus faecalis (GC 2691) for CCCOc1ccc(COCC2OC(OC3C(CO)OC(Oc4ccc(CC5NC(=O)C(C(C)c6ccccc6)NC(=O)CNC(=O)C(CO)NC(=O)C(C(O)C6CNC(=N)N6C6OC(CO)C(O)C(O)C6O)NC(=O)C(C(O)C6CNC(=N)N6)NC5=O)cc4)C(O)C3O)C(O)C(O)C2O)cc1 (stereo not shown) = 4

---

MIC Coagulase Negative Staphylococcus (GC 4547) for assorted compounds
Tested on: Staphylococcus sp.
Experiment: in vitro antibacterial evaluation, MIC by broth dilution
Assay type: cell-based
Settings: broth dilution, 18 hours at 35° C.; strain GC 4547
Numbers only; they are read as µg/mL.

Example entries begin here.
>>> observed_value("CC(c1ccccc1)C1NC(=O)CNC(=O)C(CO)NC(=O)C(C(O)C2CNC(=N)N2C2OC(CO)C(O)C(O)C2O)NC(=O)C(C(O)C2CNC(=N)N2)NC(=O)C(Cc2ccc(OC3OC(CO)C(OC4OC5COC(Cc6ccc(Cl)cc6)OC5C(O)C4O)C(O)C3O)cc2)NC1=O (stereo not shown)")
1
>>> observed_value("CC(c1ccccc1)C1NC(=O)CNC(=O)C(CO)NC(=O)C(C(O)C2CNC(=N)N2C2OC(CO)C(O)C(O)C2O)NC(=O)C(C(O)C2CNC(=N)N2)NC(=O)C(Cc2ccc(OC3OC(COC(=O)CCC4CCCC4)C(OC4OC(CO)C(O)C(O)C4O)C(O)C3O)cc2)NC1=O (stereo not shown) [Example 100b]")
1

Turning now to a further compound:
Summary line: COc1ccc2cc(COCC3OC(OC4C(CO)OC(Oc5ccc(CC6NC(=O)C(C(C)c7ccccc7)NC(=O)CNC(=O)C(CO)NC(=O)C(CC7CNC(=N)N7C7OC(CO)C(O)C(O)C7O)NC(=O)C(CC7CNC(=N)N7)NC6=O)cc5)C(O)C4O)C(O)C(O)C3O)ccc2c1 (stereo not shown) , Staphylococcus sp., reported MIC Coagulase Negative Staphylococcus (GC 4547) = 4
